System: Avena sativa
assay.info: Inhibition of Avena sativa var. Zenshin seed germination assessed as coleoptile length at 1 uM after 6 days (reference value: 9.5 cm)
Assay type: functional
endpoint.name: Activity (cm)
// units = cm; emit number, no label

# input Hi! What's the reported Activity for CCCOC(=O)NCSc1ccccc1 [PROPYL PHENYLTHIOMETHYLCARBAMATE] on Avena sativa?
# output 1.7

# input Hi! What's the reported Activity for `CC(C)OC(=O)Nc1cccc(Cl)c1` on Avena sativa?
# output 0

# input Hi! What's the reported Activity for O=C(Nc1ccccc1)OCCc1ccccc1 [PHENETHYL PHENYLCARBAMATE] on Avena sativa?
# output 0.3

# input Hi! What's the reported Activity for O=C(NCSc1ccccc1)OC/C=C/c1ccccc1 [CINNAMYL PHENYLTHIOMETHYLCARBAMATE] on Avena sativa?
# output 2.2

# input Hi! What's the reported Activity for O=C(Nc1ccc(Cl)cc1)Oc1ccccc1 [PHENYL 4-CHLOROPHENYLCARBAMATE] on Avena sativa?
# output 8.1
